# Test system: KGN (Other Solid Carcinomas)
# protocol notes: combination Emax (second highest fraction inhibited in the dose matrix, 72 h); higher = more inhibition; extreme values may be limits of the assay
Quick rule for you: combination Emax at 0.7 or higher means yes (1), lower means no (0).

Ask: Hi, just wondering whether COc1nnc2ccc(N3CCC(c4ccc(OCCN5CCN(C)C(=O)[C@H]5C)cc4)CC3)nn12 [AZD5153] + C[C@@H]1COCCN1C2=NC(=NC(=C2)C3(CC3)[S@](=N)(=O)C)C4=C5C=CNC5=NC=C4 [AZD6738] (first compound max 1 µM, 7x7, partner max 10 µM) shows combination Emax of 0.7 or higher.
Reply: yes (1)

Ask: Ok, now C[C@@H]1COCCN1c1cc(C2([S@](C)(=N)=O)CC2)nc(-c2ccnc3[nH]ccc23)n1 [AZD6738] + C1CC(C1)(C(=O)[O-])C(=O)[O-].N.N.[Pt+2] [Carboplatin] (first compound max 10 µM, 7x7, partner max 10 µM)
Reply: yes (1)

Ask: Moving on to the next molecule: COc1cccc2c1C(=O)c1c(O)c3c(c(O)c1C2=O)C[C@@](O)(C(=O)CO)C[C@@H]3O[C@H]1C[C@H](N)[C@H](O)[C@H](C)O1 [Doxorubicin] + Cc1cc2ncnn2cc1Nc1ncc2c(n1)n(C1CCOCC1)c(=O)n2C [AZD7648] (first compound max 1 µM, 7x7, partner max 10 µM)
Reply: yes (1)

Ask: And for Cc1c2c(nn1C)CSCc1cc(n(C)n1)CSc1cc(c3ccccc3c1)OCCCc1c(C(=O)O)n(C)c3c-2c(Cl)ccc13 [AZD5991] + C1CN(CCC1(C(=O)N[C@@H](CCO)C2=CC=C(C=C2)Cl)N)C3=NC=NC4=C3C=CN4 [Capivasertib] (first compound max 1 µM, 7x7, partner max 3 µM) ?
Reply: no (0)

Ask: Try this molecule too: CN(CCO)CC[C@H](CSc1ccccc1)Nc1ccc(S(=O)(=O)NC(=O)c2ccc(N3CCC([C@@H](O)c4ccccc4-c4ccc(Cl)cc4)CC3)cc2)cc1S(=O)(=O)C(F)(F)F [AZD4320] + C1CN(CCC1(C(=O)N[C@@H](CCO)C2=CC=C(C=C2)Cl)N)C3=NC=NC4=C3C=CN4 [Capivasertib] (first compound max 1 µM, 7x7, partner max 3 µM)
Reply: no (0)

Ask: Same question for C=CCn1c(=O)c2cnc(Nc3ccc(N4CCN(C)CC4)cc3)nc2n1-c1cccc(C(C)(C)O)n1 [AZD1775] + O=C(c1cc(Cc2n[nH]c(=O)c3ccccc23)ccc1F)N1CCN(C(=O)C2CC2)CC1 [Olaparib] (first compound max 1 µM, partner max 10 µM) please.
Reply: yes (1)
